B1: HDV Ribozyme (parent)
chain: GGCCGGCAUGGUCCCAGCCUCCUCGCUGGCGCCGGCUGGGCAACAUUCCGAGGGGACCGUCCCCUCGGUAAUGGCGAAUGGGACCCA

variants of: B1; test: self-cleavage, relative activity (ratio to wild type); higher = more cleavage; co-transcriptional
measurementType: self-cleavage
Answer with a bare number; do not write a unit.

Data request: Note down self-cleavage recorded for G6C U60A
Data returned: 0.231

Reference source: the RNAGym collection of RNA variant scans (doi:10.7554/elife.80360)
